Target: MMP-2 (Homo sapiens, UniProt P08253)
Construct: made in house; host or cells: MMP-2-transfected p2AHT2 cells
Assay: In vitro MMP inhibition, Ki determination (fluorogenic substrate II)
Assay type: biochemical
Conditions: value not in parenthesis; read-out: MMP-2 Ki
Sequence (P08253 110-660): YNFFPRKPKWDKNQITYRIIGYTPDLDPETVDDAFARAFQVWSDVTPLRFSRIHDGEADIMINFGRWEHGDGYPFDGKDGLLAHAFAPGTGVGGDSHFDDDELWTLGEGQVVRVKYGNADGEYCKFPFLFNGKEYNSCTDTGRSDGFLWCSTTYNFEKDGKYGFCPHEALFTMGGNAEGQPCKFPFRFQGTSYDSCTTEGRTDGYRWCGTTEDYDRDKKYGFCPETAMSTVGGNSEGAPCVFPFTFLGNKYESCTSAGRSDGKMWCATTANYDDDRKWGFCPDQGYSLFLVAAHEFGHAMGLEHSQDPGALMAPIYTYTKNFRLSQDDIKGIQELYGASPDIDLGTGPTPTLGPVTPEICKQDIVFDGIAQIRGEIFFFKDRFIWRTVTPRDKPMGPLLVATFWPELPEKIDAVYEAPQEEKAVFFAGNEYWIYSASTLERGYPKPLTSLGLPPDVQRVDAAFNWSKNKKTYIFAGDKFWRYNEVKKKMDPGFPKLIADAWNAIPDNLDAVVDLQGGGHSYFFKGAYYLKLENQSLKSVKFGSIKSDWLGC
In this section, each of the molecules is paired with its reported Ki.
Report as a plain number; the unit nM is understood.

O=C(NO)C1(S(=O)(=O)N2CCN(c3ccc(COCC(F)(F)C(F)F)cc3)CC2)CCOCC1
2.35
CCCCCc1ccc(N2CCN(S(=O)(=O)C3(C(=O)NO)CCOCC3)CC2)nn1
5.78
CCCCOc1ccc(N2CCN(S(=O)(=O)C3(C(=O)NO)CC3)CC2)cc1
6.77
CCCCOc1ccc(N2CCN(S(=O)(=O)C3(C(=O)NO)CCN(c4nccc(C(F)(F)F)n4)CC3)CC2)cc1
5.23
CCCCOc1ccc(N2CCN(S(=O)(=O)C3(C(=O)NO)CCN(c4ccc(Cl)c(Cl)c4)CC3)CC2)cc1
29.9

Looking up CCCCOc1ccc(N2CCN(S(=O)(=O)C3(C(=O)NO)CCN(c4ccc(OC)cc4)CC3)CC2)cc1 , I found its Ki recorded as 4.98

Looking up CCCCOc1ccc(N2CCN(S(=O)(=O)C3(C(=O)NO)CCN4CCCC4C3)CC2)cc1F (stereo not shown) , I found its Ki recorded as 8.24

Looking up CCCCOc1ccc(N2CCN(S(=O)(=O)C3(C(=O)NO)CCN(c4ccc(N(C)C)cc4)CC3)CC2)cc1 , I found its Ki recorded as 3.64

Looking up CCCCOc1ccc(N2CCN(S(=O)(=O)C3(C(=O)NO)CCN(C(=O)OCC(F)(F)F)CC3)CC2)cc1 , I found its Ki recorded as 1.48

Looking up CCCCOc1ccc(N2CCN(S(=O)(=O)C3(C(=O)NO)CCN(c4ccc(C#N)cc4)CC3)CC2)cc1 , I found its Ki recorded as 9.28

Looking up C#CCOC(=O)N1CCC(C(=O)NO)(S(=O)(=O)N2CCN(c3ccc(OCCCC)cc3)CC2)CC1 , I found its Ki recorded as 0.5

Looking up CCCCOc1ccc(N2CCN(S(=O)(=O)C3(C(=O)NO)CCN(c4ccc(OC(F)(F)C(F)F)cc4)CC3)CC2)cc1 , I found its Ki recorded as 23.6

Looking up CCCCOc1ccc(N2CCN(S(=O)(=O)C3(C(=O)NO)CCN(C(=O)NCCOC)CC3)CC2)cc1 , I found its Ki recorded as 0.75

Looking up COCCN1CCC(C(=O)NO)(S(=O)(=O)N2CCN(c3ccc(OCCC(C)C)cc3)CC2)CC1 , I found its Ki recorded as 1.19

Looking up COCCN1CCC(C(=O)NO)(S(=O)(=O)N2CCN(c3ccc(C)cc3)CC2)CC1 , I found its Ki recorded as 1.74

Looking up O=C(NO)C1(S(=O)(=O)N2CCN(c3ncc(Br)cn3)CC2)CCOCC1 [Example 104] , I found its Ki recorded as 4.73

###

In this section, each of the molecules is paired with its reported log10(Ki).
Target: MMP-2 (Homo sapiens, UniProt P08253)
Construct: made in house; host or cells: MMP-2-transfected p2AHT2 cells
Assay: MMP-2 inhibition (in vitro Ki)
Type: biochemical
Details: Table 9; read-out: MMP-2 Ki (IC-50)
Sequence (P08253 110-660, species assumed): as the sequence (P08253 110-660) above
In our notation, the value equals log10 of Ki in nM.

# example entries with known answers
O=C(NO)C1(S(=O)(=O)N2CCN(c3ccc(-c4ccsc4)c(F)c3)CC2)CCOCC1
-0.48
O=C(CCCCC1CCN(S(=O)(=O)C2(C(=O)NO)CCOCC2)CC1)N1CCc2ccccc2C1
1.34
CN(C(=O)/C=C/C=C/C1CCN(S(=O)(=O)C2(C(=O)NO)CCOCC2)CC1)C1CCCCC1
3.39

Looking up CN(C(=O)CCCC1CCN(S(=O)(=O)C2(C(=O)NO)CCOCC2)CC1)c1ccc(F)cc1 , I found its log10(Ki) recorded as 2.54

Looking up CCn1nnc(-c2ccc(N3CCN(S(=O)(=O)C4(C(=O)NO)CCOCC4)CC3)cc2)n1 , I found its log10(Ki) recorded as -0.64

###

Molecular target: MMP-13 (Homo sapiens)
Construct: made in house; host or cells: baculovirus / insect cells
Experiment: In vitro MMP inhibition, Ki determination (fluorogenic substrate II)
Type: biochemical
Conditions: value not in parenthesis; read-out: MMP-13 Ki
Value Kind: pKi
A value of pKi is the negative decimal logarithm of a concentration given in moles per litre.

CC(C)Cc1ccc(N2CCN(S(=O)(=O)C3(C(=O)NO)CCOCC3)CC2)c(F)c1
7.79
O=C(NO)C1(S(=O)(=O)N2CCN(c3ccc(Cl)nn3)CC2)CCOCC1
7.22
CCCCOc1ccc(N2CCN(S(=O)(=O)C3(C(=O)NO)CCN(c4ccccn4)CC3)CC2)cc1
8.88
COc1ccc(N2CCN(S(=O)(=O)C3(C(=O)NO)CCOCC3)CC2)nc1 [Example 108]
6.32
O=C(NO)C1(S(=O)(=O)N2CCN(c3ncc(Br)cn3)CC2)CCOCC1 [Example 104]
8.45

Looking up CCOCCSc1ccc(N2CCN(S(=O)(=O)C3(C(=O)NO)CCOCC3)CC2)cc1 , I found its pKi recorded as 8.79

Looking up CCCCOc1ccc(N2CCN(S(=O)(=O)C3(C(=O)NO)CCN(c4cccc(C)c4)CC3)CC2)cc1 , I found its pKi recorded as 8.36

Looking up CCCCOc1ccc(N2CCN(S(=O)(=O)C3(C(=O)NO)CCN(c4cnccn4)CC3)CC2)cc1 , I found its pKi recorded as 9.35

###

In this section, each of the molecules is paired with its reported Ki.
Target: MMP-13 (Homo sapiens)
Construct: made in house; host or cells: baculovirus / insect cells
Assay: MMP-13 inhibition (in vitro Ki)
Assay type: biochemical
Details: Table 8; read-out: MMP-13 Ki
Structures can show the parent of a compound that is named as a salt.
Report as a plain number; the unit nM is understood.

O=C(NO)C1(S(=O)(=O)N2CCC(CCOCCCC(F)(F)F)CC2)CCOCC1
12.2

Looking up O=C(NO)C1(S(=O)(=O)N2CCC(CCCCCOCCC(F)(F)F)CC2)CCOCC1 , I found its Ki recorded as 0.3

Looking up O=C(NO)C1(S(=O)(=O)N2CCC(CCCCCC(F)(F)C(F)(F)F)CC2)CCOCC1 , I found its Ki recorded as 0.67

Looking up O=C(NO)C1(S(=O)(=O)N2CCC(c3ccc(OCC(F)(F)F)cn3)CC2)CCOCC1 [Example A57, Hydrochloride] , I found its Ki recorded as 0.34

Looking up CC(C)CCCOC1CCN(S(=O)(=O)C2(C(=O)NO)CCOCC2)CC1 [Example A36D] , I found its Ki recorded as 19.9

Looking up CCCOCCCCC1CCN(S(=O)(=O)C2(C(=O)NO)CCOCC2)CC1 , I found its Ki recorded as 1.99

###

In this section, each of the compounds is paired with its reported pKi.
Molecular target: MMP-2 (Homo sapiens, UniProt P08253)
Construct: made in house; host or cells: MMP-2-transfected p2AHT2 cells
Assay: MMP-2 inhibition (in vitro Ki)
Type: biochemical
Conditions: Table 9; read-out: MMP-2 Ki (IC-50)
A value of pKi is the negative decimal logarithm of a concentration given in moles per litre.

# example entries with known answers
COCC#Cc1ccc(C2CCN(S(=O)(=O)C3(C(=O)NO)CCOCC3)CC2)nc1 [Example A171]
9.38
O=C(NO)C1(S(=O)(=O)N2CCC(c3ccc(CCC(F)(F)C(F)(F)F)cn3)CC2)CCC1 [Example A126]
9.57
COCC(=O)N1CCC(C(=O)NO)(S(=O)(=O)N2CCC(c3ccc(CCC(F)(F)C(F)(F)F)cn3)CC2)CC1 [Example A109]
9.22
O=C(CCCCN1CCN(S(=O)(=O)C2(C(=O)NO)CCOCC2)CC1)c1ccc(OC(F)(F)F)cc1 [Example A150]
6.61
CN(C(=O)CCCCC1CCN(S(=O)(=O)C2(C(=O)NO)CCOCC2)CC1)c1ccc(F)cc1 [Example A93]
7.03

Could you now look at the following compound, please?
Looking up O=C(/C=C/C=C/C1CCN(S(=O)(=O)C2(C(=O)NO)CCOCC2)CC1)N1CCOCC1 [Example A208] , I found its pKi recorded as 6.75

###

Target: MMP-2 (Homo sapiens, UniProt P08253)
Construct: made in house; host or cells: MMP-2-transfected p2AHT2 cells
Experiment: In vitro MMP inhibition, Ki determination (fluorogenic substrate II)
Assay type: biochemical
Conditions: value outside parentheses; read-out: MMP-2 Ki
// NB: equality with 1 nM counts as no (0); only Ki strictly below is yes (1)

Below are worked cases with known answers.
O=C(NO)C1(S(=O)(=O)N2CCC(c3ccc(N4CCCC4)cn3)CC2)CCOCC1 [Example 408]
no (0)
O=C(NO)C1(S(=O)(=O)N2CCN(c3ncc(-c4ccc(Cl)c(Cl)c4)s3)CC2)CCOCC1 [Example 369]
yes (1)
O=C(NO)C1(S(=O)(=O)N2CCN(c3ncc(-c4ccc(Cl)cc4)s3)CC2)CCOCC1 [Example 343]
yes (1)
CCCCOc1ccc(N2CCN(S(=O)(=O)C3(C(=O)NO)CCN(C(=O)c4ccccn4)CC3)CC2)cc1 [Example 277]
yes (1)
Cc1cccc(-c2cnc(N3CCN(S(=O)(=O)C4(C(=O)NO)CCOCC4)CC3)s2)c1 [Example 370]
no (0)
CS(=O)(=O)c1ccc(N2CCN(S(=O)(=O)C3(C(=O)NO)CCOCC3)CC2)cc1 [Example 300]
no (0)
O=C(NO)C1(S(=O)(=O)N2CCC(COCc3ccc(C(F)(F)F)cc3)CC2)CCOCC1 [Example 403]
no (0)
O=C(NO)C1(S(=O)(=O)N2CCC(c3ccc(-c4cccs4)cn3)CC2)CCOCC1 [Example 394]
no (0)
O=C(NO)C1(S(=O)(=O)N2CCN(c3ccc(CCCC(F)(F)F)cn3)CC2)CCOCC1 [Example 358]
yes (1)
COCCOc1ccc(N2CCN(S(=O)(=O)C3(C(=O)NO)CCN(C4CC4)CC3)CC2)cc1F [Example 297]
no (0)

Strictly below 1 nM in Ki? CCCCOc1ccc(N2CCN(S(=O)(=O)C3(C(=O)NO)CCN(C(=O)C(C)C)CC3)CC2)cc1 [Example 273]
yes (1)

Strictly below 1 nM in Ki? COCCN1CCC(C(=O)NO)(S(=O)(=O)N2CCC(c3ccc(CCC(F)(F)F)cc3)CC2)CC1 [Example 309]
yes (1)

Strictly below 1 nM in Ki? CCC=C1CCN(S(=O)(=O)C2(C(=O)NO)CCOCC2)CC1 [Example 374]
no (0)

Strictly below 1 nM in Ki? O=C(NO)C1(S(=O)(=O)N2CCN(c3ncc(-c4ccc([N+](=O)[O-])cc4)s3)CC2)CCOCC1 [Example 363]
yes (1)

Strictly below 1 nM in Ki? O=C(NO)C1(S(=O)(=O)N2CCN(c3ccc(CCCC(F)(F)F)cc3F)CC2)CCOCC1 [Example 386]
no (0)

Strictly below 1 nM in Ki? Cc1cccc(-c2csc(N3CCN(S(=O)(=O)C4(C(=O)NO)CCOCC4)CC3)n2)c1 [Example 413]
no (0)

Ref: patent US20050209278A1
